Field: composite z-score. Provide a value for each of the molecules that follow.
# Target Or System: Focal adhesion kinase 1 (Homo sapiens)
# Measurement Notes: PTK2 protein binding on printed compound slides – biochemical, small-molecule microarray, 635/667 nm fluorescence, BSA, DTT, primary screen (AID 1130);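 note: composite of spot emission at 667 nm and signal to noise over triplicate slides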
# Condition: 635 nm fluorescence, higher = more signal
Give your answer as a number; write no unit.

Reported Focal adhesion kinase 1 (Homo sapiens) composite z-score for item "CCOC(=O)C1=CC[C@@H](c2ccccc2F)N(S(=O)(=O)c2ccc(C)cc2)[C@H]1c1ccccc1" was 0.13

Sample "O=C1O[C@H](c2ccccc2)[C@H](c2ccccc2)N2[C@H]1[C@@H](C(=O)O)[C@]1(C(=O)Nc3ccc(C#CCCO)cc31)[C@H]2c1ccccc1OCCO" , system: Focal adhesion kinase 1 (Homo sapiens). Its composite z-score is 0.0281

Bench note, Focal adhesion kinase 1 (Homo sapiens): entry "CO[C@H]1O[C@H](CO)[C@@H](OC(=O)Nc2ccccc2)[C@H](OC(=O)c2cc3ccccc3[nH]2)[C@H]1OC(=O)c1cc2ccccc2[nH]1" , its composite z-score = 0.353

Focal adhesion kinase 1 (Homo sapiens) composite z-score of "COc1ccc([Si](C)(C)[C@H]2[C@H](CC(=O)N3Cc4ccccc4C[C@H]3CO)O[C@@]3(C(=O)N(Cc4ccc(N5CCOC5=O)cc4)c4ccccc43)[C@@H]2C)cc1" is 0.109

With Focal adhesion kinase 1 (Homo sapiens) as the test system, "CCCN1C(=O)[C@@]2(Cc3ccccc31)N=C(c1ccc(OCCCO)cc1)O[C@H]2c1ccccc1" showed composite z-score of 0.881

Note to self: composite z-score of O=C1OCCC/C=C\[C@H]2OC34C=CCN(c5ccc6ccccc6c5)C(=O)[C@H]3N(CCO)C(=O)[C@@H]4C12 (stereo partly specified) with Focal adhesion kinase 1 (Homo sapiens) was -0.774

Entry COc1cc2c(cc1O)C(C1CC1)N(C)CC2 (stereo unspecified) , tested on Focal adhesion kinase 1 (Homo sapiens), has a reported composite z-score of -0.532

Value sought: composite z-score, system Focal adhesion kinase 1 (Homo sapiens), item "Cc1ccc(S[C@]2(C(=O)NC(C)C)CC(=O)N(Cc3cc(C(F)(F)F)cc(C(F)(F)F)c3)[C@@H]2c2ccc(CO)cc2)cc1" . Result: -0.734

# COc1cc2c(cc1O)C(c1ccc(CN3CCCC3)cc1)N(Cc1cc3c(cc1Br)OCO3)CC2 (stereo unspecified) with Focal adhesion kinase 1 (Homo sapiens): composite z-score is 0.171

Note to self: composite z-score of Cc1cc(C)c(C(O)C2C=CC3C(=O)N(c4ccccc4)C(=O)C3N2Nc2ccccc2F)c(C)c1 (stereo unspecified) with Focal adhesion kinase 1 (Homo sapiens) was 0.39

Observed composite z-score, Focal adhesion kinase 1 (Homo sapiens), "COCCOC(=O)N1C(=O)[C@@]2(c3cc(C#CCCO)ccc31)[C@H](C(=O)Nc1nc3ccccc3s1)[C@H]1C(=O)O[C@H](c3ccccc3)[C@H](c3ccccc3)N1[C@@H]2c1ccc(O)cc1" : 0.978

# composite z-score measured on Focal adhesion kinase 1 (Homo sapiens) for item O=C1C2C=CC(C(O)C3CC=CCC3)N(Nc3ccccc3)C2C(=O)N1c1ccccc1 (stereo unspecified) = 1.17

Noted composite z-score for "C=CCN1C(=O)[C@]2(CCS(=O)(=O)c3ccccc3)N=C(c3ccc(OCCCO)cc3)O[C@@H]2c2ccccc21" , tested on Focal adhesion kinase 1 (Homo sapiens): 1.29

GET /values?item= "NCCCCCNC(=O)[C@@H]1C[C@@H]2C(=O)N[C@@H](CCCCN)C(=O)N2[C@@H]1c1ccc(O)cc1" &system= Focal adhesion kinase 1 (Homo sapiens) returns composite z-score: 0.294

Entry "C=C(/C(=C/C[C@H](OC(C)=O)c1ccc(CO)o1)c1cnc2ccccc2c1)C(C)C" , Focal adhesion kinase 1 (Homo sapiens) data, composite z-score value: 0.38

Tested on Focal adhesion kinase 1 (Homo sapiens), the item "COc1ccc([Si](C)(C)[C@@H]2[C@@H](CCO)O[C@]3(C(=O)N(Cc4ccccc4)c4ccc(N5CCOC5=O)cc43)[C@H]2C)cc1" showed composite z-score equal to -0.0211
